Target: human recombinant PDE9 protein (Homo sapiens, UniProt O76083)
Construct: made in house; host or cells: COS-1 cells, transient transfection with pcDNA 3.1 (+); supernatant of the homogenate, not purified
Sequence (O76083 whole entry): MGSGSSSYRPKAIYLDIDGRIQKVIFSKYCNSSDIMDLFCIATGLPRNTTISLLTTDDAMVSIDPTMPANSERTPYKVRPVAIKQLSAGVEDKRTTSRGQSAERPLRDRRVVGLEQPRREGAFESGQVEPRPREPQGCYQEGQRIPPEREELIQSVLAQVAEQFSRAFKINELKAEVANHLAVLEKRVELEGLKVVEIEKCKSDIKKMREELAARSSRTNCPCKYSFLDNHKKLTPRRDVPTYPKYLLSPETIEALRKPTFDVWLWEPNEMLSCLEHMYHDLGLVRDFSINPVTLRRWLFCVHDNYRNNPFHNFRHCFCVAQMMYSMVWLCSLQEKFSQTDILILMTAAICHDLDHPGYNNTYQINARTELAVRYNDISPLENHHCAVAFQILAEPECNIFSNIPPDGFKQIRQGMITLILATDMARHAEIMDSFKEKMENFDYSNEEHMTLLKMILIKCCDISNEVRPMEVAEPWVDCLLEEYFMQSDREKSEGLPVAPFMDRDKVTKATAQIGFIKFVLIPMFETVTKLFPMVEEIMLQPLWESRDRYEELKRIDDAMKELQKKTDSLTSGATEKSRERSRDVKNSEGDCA
Assay: Measurement of PDE9-inhibiting activity ([3H]-cGMP hydrolysis)
Format: biochemical
Details: Tables A and C; read-out: Inhibiting Activity (IC50 value) PDE9
readout: pIC50
pIC50 (log units): -log10 of the concentration in mol/L.

These recorded examples may help you get a feel for the data.
pIC50 in this record for `O=C(O)c1cc2c(=S)[nH]c(Cc3ccc(Cl)c(Cl)c3)nc2s1` : 8.30

pIC50 in this record for `Cc1c(C(=O)O)sc2nc(Cc3cccc(Cl)c3)[nH]c(=S)c12` : 8.30

pIC50 in this record for `Cc1c(C(=O)O)sc2nc(Cc3ccc(Cl)c(Cl)c3)[nH]c(=S)c12` : 8.40

More entries:
pIC50 in this record for `COc1cc2c(cc1C(=O)N(C)C)[nH]c(=O)c1cnc(C3CCCCC3)n12` : 8.92

pIC50 in this record for `O=C(O)c1cc2c(=O)[nH]c(Cc3cccc(Cl)c3)nc2s1` : 8.00

pIC50 in this record for `Cc1c(C(=O)O)sc2nc(CC3=CCCCC3)[nH]c(=S)c12` : 7.32

pIC50 in this record for `Cc1c(C(=O)O)sc2nc(Cc3ccccc3)[nH]c(=O)c12` : 7.46
